Biological target: ~100 representative kinases (Homo sapiens, UniProt P45983)
Construct: Recombinant protein kinase domains with a concentration of 2 μM
Sequence (P45983 whole entry, the tested form may be a part): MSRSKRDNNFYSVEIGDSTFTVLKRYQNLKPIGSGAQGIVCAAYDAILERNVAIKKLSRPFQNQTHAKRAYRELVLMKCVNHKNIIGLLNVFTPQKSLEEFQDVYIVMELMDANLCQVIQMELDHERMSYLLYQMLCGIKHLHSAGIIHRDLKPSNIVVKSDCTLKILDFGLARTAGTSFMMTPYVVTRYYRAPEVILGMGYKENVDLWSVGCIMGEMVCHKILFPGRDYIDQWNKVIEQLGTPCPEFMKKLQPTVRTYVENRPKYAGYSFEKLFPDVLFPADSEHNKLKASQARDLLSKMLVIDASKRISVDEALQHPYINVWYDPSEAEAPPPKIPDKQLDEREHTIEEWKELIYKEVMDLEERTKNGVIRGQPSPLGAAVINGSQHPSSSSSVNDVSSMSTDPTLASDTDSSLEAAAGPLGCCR
Test: DSF 100 kinase selectivity screen;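 further: compound tested at 20 µM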
Type: binding
Settings: protein MAPK8; average of three replicates
Would you kindly list dTm for each of these compounds?
One number for each entry, in K.

Please look up its dTm: CNC(=O)c1cc(Oc2ccc(NC(=O)Nc3cc(C(C)(C)C)nn3-c3ccc4ncccc4c3)c(F)c2)ccn1 [Rebastinib, reference compound]
1.99

Please look up its dTm: COc1ccc(NC(=O)C2(C(=O)Nc3cccc(-c4c[nH]c5ncnc(N6CCOCC6)c45)c3)CC2)cc1
0.26

Please look up its dTm: Cn1cc(-c2c[nH]c3ncnc(N4CCOCC4)c23)cc1C#N
0.89

Please look up its dTm: CC(=O)N1CCN(c2nc(Cl)nc3[nH]cc(-c4cccc(NC(=O)Nc5cc(C(C)(C)C)nn5-c5ccc(C)cc5)c4)c23)CC1
0.84

// each compound listed below needs its dTm
1. O=C(Nc1ccc(Cl)cc1)C1(C(=O)Nc2cccc(-c3c[nH]c4ncnc(N5CCOCC5)c34)c2)CC1
2. O=C(Nc1cccc(-c2c[nH]c3ncnc(N4CCOCC4)c23)c1)C1(C(=O)Nc2ccc(F)c(Br)c2F)CC1
3. O=C(Nc1cccc(-c2c[nH]c3ncnc(N4CCOCC4)c23)c1)c1cccn(-c2ccc(F)cc2)c1=O
4. O=C(Nc1ccc(F)cc1)C1(C(=O)Nc2cccc(-c3c[nH]c4ncnc(N5CCOCC5)c34)c2)CC1
5. C[C@@H]1CN(c2cc(-c3n[nH]c4ccc(OC5(C)CC5)cc34)ncn2)C[C@H](C)O1
6. O=C(Nc1cccc(-c2c[nH]c3ncnc(N4CCOCC4)c23)c1)C1(C(=O)Nc2ccc(F)c(F)c2)CC1

1: 3.26; 2: 2.06; 3: 3.47; 4: 1.17; 5: 0.56; 6: 2.52

// each compound listed below needs its dTm
1. COc1cc(NC(=O)C2(C(=O)Nc3cccc(-c4c[nH]c5ncnc(N6CCOCC6)c45)c3)CC2)ccc1F
2. COc1cc2c(Oc3ccc(NC(=O)C4(C(=O)Nc5ccc(F)cc5)CC4)cc3F)ccnc2cc1OCCCN1CCOCC1 [Foretinib, reference compound]

[1.81, 2.68]

// each compound listed below needs its dTm
1. Cc1ccc(NC(=O)C2(C(=O)Nc3cccc(-c4c[nH]c5ncnc(N6CCOCC6)c45)c3)CC2)cc1
2. Cc1ccc(C(=O)Nc2ccc(CN3CCN(C)CC3)c(C(F)(F)F)c2)cc1C#Cc1c[nH]c2ncnc(N3CCOCC3)c12
3. O=C(Nc1cccc(-c2c[nH]c3ncnc(N4CCOCC4)c23)c1)C1(C(=O)Nc2ccc(F)cc2F)CC1
4. CC(C)(C)c1cc(NC(=O)Nc2cccc(-c3c[nH]c4ncnc(N5CCOCC5)c34)c2)n(-c2ccc3ncccc3c2)n1

[0.90, 2.18, 1.59, 3.58]

// each compound listed below needs its dTm
1. Cc1cc(NC(=O)C2(C(=O)Nc3ccc(F)cc3)CC2)cc(-c2c[nH]c3ncnc(N4CCOCC4)c23)c1
2. COc1cc(C(=O)N2CCOCC2)c(F)cc1Nc1nc(N(C)C)c2c(Cl)c[nH]c2n1
3. CCSc1nc(NC)c2c(-c3cccc(NC(=O)Nc4cc(C(C)(C)C)nn4-c4ccc(C)cc4)c3)c[nH]c2n1
4. Cc1ccc(-n2nc(C(C)(C)C)cc2NC(=O)Nc2cccc(-c3c[nH]c4nc(Cl)nc(N5CCOCC5)c34)c2)cc1
5. O=C(Nc1ccccc1)C1(C(=O)Nc2cccc(-c3c[nH]c4ncnc(N5CCOCC5)c34)c2)CC1
6. CC(C)(C)c1cccc(NC(=O)C2(C(=O)Nc3cccc(-c4c[nH]c5ncnc(N6CCOCC6)c45)c3)CC2)c1

2.19
5.54
4.04
1.42
1.81
3.75

Please look up its dTm: Cc1ccc(-n2nc(C(C)(C)C)cc2NC(=O)Nc2cccc(-c3c[nH]c4ncnc(N5CCOCC5)c34)c2)cc1
4.13
